conditions: in n-octanol, 307.12 K
measured.quantity: solubility (mole fraction)
One number for each entry.

stdin: Fill blank: measured solubility (mole fraction) of the compound CC(=O)Oc1ccccc1C(=O)O is ____.
stdout: 0.0434

---

settings: in ethanol, 274.95 K
measured.quantity: solubility (mole fraction)

stdin: I have this compound here, CC(=O)Oc1ccccc1C(=O)O , and I need its recorded solubility (mole fraction).
stdout: 0.0246

---

conditions: in n-octanol, 262.78 K
measured.quantity: solubility (mole fraction)

stdin: Look up solubility (mole fraction) for this compound: CC(=O)Nc1ccc(O)cc1
stdout: 0.0057

---

details: in methanol, 292.46 K
measured.quantity: solubility (mole fraction)
Numbers only.

stdin: Give the measured solubility (mole fraction) of CN=C(NC#N)NCCSCc1nc[nH]c1C .
stdout: 0.0138

Where do these numbers come from? They come from BigSolDB 2.1.
